The reported numbers originate from PubChem BioAssay AID2060483.

Tested on: K24384-001-R-PDC complex spheroids, viability
test-protocol: Anticancer human tumor K24384-001-R-PDC patient-derived pancreatic adenocarcinoma cell line growth inhibition [GQUAD]
setup-conditions: second compound 1 µM; first compound 0.000999 µM; active compounds read low
value-kind: viability, T/C (%)
Report only the number, with the unit % understood.

Worked examples follow.
molecule: Cn1ncnc1[C@H]1c2n[nH]c(=O)c3cc(F)cc(c23)N[C@@H]1c1ccc(F)cc1 + CN(C)c1ccc(Nc2c3ccc(NC(=O)CCN4CCCC4)cc3nc3cc(NC(=O)CCN4CCCC4)ccc23)cc1
target-desc: K24384-001-R-PDC complex spheroids, viability
viability, T/C, %: 90.4
--
molecule: Cc1[nH]c2ccccc2c1CCNCc1ccc(/C=C/C(=O)NO)cc1 + Cc1cnc(CNC(=O)c2c(=O)c3ccc(N4CCCN(C)CC4)nc3n3c2sc2ccccc23)cn1
target-desc: K24384-001-R-PDC complex spheroids, viability
viability, T/C, %: 41.3
--
molecule: Cn1ncnc1[C@H]1c2n[nH]c(=O)c3cc(F)cc(c23)N[C@@H]1c1ccc(F)cc1 + Cc1cnc(CNC(=O)c2c(=O)c3ccc(N4CCCN(C)CC4)nc3n3c2sc2ccccc23)cn1
target-desc: K24384-001-R-PDC complex spheroids, viability
viability, T/C, %: 44.6
--
molecule: CCc1c2c(nc3ccc(O)cc13)-c1cc3c(c(=O)n1C2)COC(=O)[C@]3(O)CC + Cc1cnc(CNC(=O)c2c(=O)c3ccc(N4CCCN(C)CC4)nc3n3c2sc2ccccc23)cn1
target-desc: K24384-001-R-PDC complex spheroids, viability
viability, T/C, %: 38.8
--
molecule: CC[C@@]1(O)C(=O)OCc2c1cc1n(c2=O)Cc2cc3c(CN(C)C)c(O)ccc3nc2-1 + CN(C)c1ccc(Nc2c3ccc(NC(=O)CCN4CCCC4)cc3nc3cc(NC(=O)CCN4CCCC4)ccc23)cc1
target-desc: K24384-001-R-PDC complex spheroids, viability
viability, T/C, %: 99.8

Prompt: Please report the recorded viability, T/C for CC[C@@]1(O)C(=O)OCc2c1cc1n(c2=O)Cc2cc3c(CN(C)C)c(O)ccc3nc2-1 + Cc1cnc(CNC(=O)c2c(=O)c3ccc(N4CCCN(C)CC4)nc3n3c2sc2ccccc23)cn1 .
Response: 40.7

Prompt: What would you report for Cc1[nH]c2ccccc2c1CCNCc1ccc(/C=C/C(=O)NO)cc1 + Cc1[nH]c2ccc(F)cc2c1-c1nc2c3cccnc3c3ncccc3c2[nH]1 ?
Response: 91.3

====

Test system: K24384-001-R-PDC complex spheroids, viability
test-protocol: Anticancer human tumor K24384-001-R-PDC cell line growth inhibition [GQUAD];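 further: spheroids exposed to compounds for seven days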
setup-conditions: second compound 0.0316 µM; first compound 0.1 µM; active compounds read low
value-kind: viability, T/C (%)
The response must be a number in % with no trailing unit.

Recorded viability, T/C, per entry:
compound: O=C(c1cc(Cc2n[nH]c(=O)c3ccccc23)ccc1F)N1CCN(C(=O)C2CC2)CC1 + Cc1cnc(CNC(=O)c2c(=O)c3ccc(N4CCCN(C)CC4)nc3n3c2sc2ccccc23)cn1
unit-annotation: %
viability, T/C: 93.5
--
compound: COc1cccc2c1C(=O)c1c(O)c3c(c(O)c1C2=O)CC(O)(C(=O)CO)CC3OC1CC(N)C(O)C(C)O1 (stereo not given) + Cc1[nH]c2ccc(F)cc2c1-c1nc2c3cccnc3c3ncccc3c2[nH]1
unit-annotation: %
viability, T/C: 70
--
compound: Nc1ccn(C2OC(CO)C(O)C2(F)F)c(=O)n1 (stereo not given) + Cc1cnc(CNC(=O)c2c(=O)c3ccc(N4CCCN(C)CC4)nc3n3c2sc2ccccc23)cn1
unit-annotation: %
viability, T/C: 64.8
--
compound: COc1ncnc(C2CC2)c1-c1ncc2cnn(Cc3ccc(-c4nc(C(F)(F)F)cn4C(C)C)cc3)c2n1 + Cc1cnc(CNC(=O)c2c(=O)c3ccc(N4CCCN(C)CC4)nc3n3c2sc2ccccc23)cn1
unit-annotation: %
viability, T/C: 90.3

Prompt: Given the entry C=CCn1c(=O)c2cnc(Nc3ccc(N4CCN(C)CC4)cc3)nc2n1-c1cccc(C(C)(C)O)n1 + Cc1[nH]c2ccc(F)cc2c1-c1nc2c3cccnc3c3ncccc3c2[nH]1 , report its measured viability, T/C.
Response: 77.8

Prompt: Continue with C=CC(=O)N1CCN(c2nc(=O)n(-c3c(C)ccnc3C(C)C)c3nc(-c4c(O)cccc4F)c(F)cc23)C(C)C1 (stereo not given) + Cc1[nH]c2ccc(F)cc2c1-c1nc2c3cccnc3c3ncccc3c2[nH]1
Response: 78.9

Prompt: Next up: O=C(NO)c1cnc(N2CCN(S(=O)(=O)c3ccc4ccccc4c3)CC2)nc1 + CN(C)c1ccc(Nc2c3ccc(NC(=O)CCN4CCCC4)cc3nc3cc(NC(=O)CCN4CCCC4)ccc23)cc1
Response: 91.6

Prompt: Next compound: COc1cc(C2c3cc4c(cc3C(OC3OC5COC(C)OC5C(O)C3O)C3COC(=O)C23)OCO4)cc(OC)c1O (stereo not given) + Cc1cnc(CNC(=O)c2c(=O)c3ccc(N4CCCN(C)CC4)nc3n3c2sc2ccccc23)cn1
Response: 71.2

Prompt: And what about the compound CC(=O)O[C@H]1C(=O)[C@@]2(C)[C@H]([C@H](OC(=O)c3ccccc3)[C@]3(O)C[C@H](OC(=O)[C@H](O)[C@@H](NC(=O)c4ccccc4)c4ccccc4)C(C)=C1C3(C)C)[C@]1(OC(C)=O)CO[C@@H]1C[C@@H]2O + CN(C)c1ccc(Nc2c3ccc(NC(=O)CCN4CCCC4)cc3nc3cc(NC(=O)CCN4CCCC4)ccc23)cc1 ?
Response: 22.9

Prompt: How about C#Cc1c(F)ccc2cc(O)cc(-c3ncc4c(N5CC6CCC(C5)N6)nc(OCC56CCCN5CC(F)C6)nc4c3F)c12 (stereo not given) + Cc1[nH]c2ccc(F)cc2c1-c1nc2c3cccnc3c3ncccc3c2[nH]1 ?
Response: 99.6

====

Tested on: K24384-001-R-PDC complex spheroids, viability
test-protocol: Anticancer human tumor K24384-001-R-PDC cell line growth inhibition [GQUAD];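 further: spheroids exposed to compounds for seven days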
setup-conditions: second compound 0.0316 µM; first compound 0.000999 µM; active compounds read low
Source text: DNA G-quadruplex Stabilizer Agents in Combinations in Complex Spheroids A high-throughput screen of multi-cell type tumor spheroids was designed to identify active combinations of DNA G-quadruplex stabilizer agents and targeted small molecules. […] Compounds. […] If the clinical Cmax for an agent had not been determined, the highest concentration tested was 10 microM. […]
value-kind: viability, T/C (%)
# number only, unit % dropped from output

Here's what some known entries look like.
compound: CC[C@@]1(O)C(=O)OCc2c1cc1n(c2=O)Cc2cc3c(CN(C)C)c(O)ccc3nc2-1 + Cc1cnc(CNC(=O)c2c(=O)c3ccc(N4CCCN(C)CC4)nc3n3c2sc2ccccc23)cn1
target-desc: K24384-001-R-PDC complex spheroids, viability
value-kind: viability, T/C
observed-value: 96.3
//
compound: Cn1ncnc1[C@H]1c2n[nH]c(=O)c3cc(F)cc(c23)N[C@@H]1c1ccc(F)cc1 + Cc1cnc(CNC(=O)c2c(=O)c3ccc(N4CCCN(C)CC4)nc3n3c2sc2ccccc23)cn1
target-desc: K24384-001-R-PDC complex spheroids, viability
value-kind: viability, T/C
observed-value: 93.1
//
compound: CCc1c2c(nc3ccc(O)cc13)-c1cc3c(c(=O)n1C2)COC(=O)[C@]3(O)CC + Cc1cnc(CNC(=O)c2c(=O)c3ccc(N4CCCN(C)CC4)nc3n3c2sc2ccccc23)cn1
target-desc: K24384-001-R-PDC complex spheroids, viability
value-kind: viability, T/C
observed-value: 73.2
//
compound: Cn1ncnc1[C@H]1c2n[nH]c(=O)c3cc(F)cc(c23)N[C@@H]1c1ccc(F)cc1 + Cc1[nH]c2ccc(F)cc2c1-c1nc2c3cccnc3c3ncccc3c2[nH]1
target-desc: K24384-001-R-PDC complex spheroids, viability
value-kind: viability, T/C
observed-value: 97.8
//
compound: CC[C@@]1(O)C(=O)OCc2c1cc1n(c2=O)Cc2cc3c(CN(C)C)c(O)ccc3nc2-1 + CN(C)c1ccc(Nc2c3ccc(NC(=O)CCN4CCCC4)cc3nc3cc(NC(=O)CCN4CCCC4)ccc23)cc1
target-desc: K24384-001-R-PDC complex spheroids, viability
value-kind: viability, T/C
observed-value: 102
//
compound: Cc1[nH]c2ccccc2c1CCNCc1ccc(/C=C/C(=O)NO)cc1 + Cc1[nH]c2ccc(F)cc2c1-c1nc2c3cccnc3c3ncccc3c2[nH]1
target-desc: K24384-001-R-PDC complex spheroids, viability
value-kind: viability, T/C
observed-value: 103
//
compound: Cc1[nH]c2ccccc2c1CCNCc1ccc(/C=C/C(=O)NO)cc1 + CN(C)c1ccc(Nc2c3ccc(NC(=O)CCN4CCCC4)cc3nc3cc(NC(=O)CCN4CCCC4)ccc23)cc1
target-desc: K24384-001-R-PDC complex spheroids, viability
value-kind: viability, T/C
observed-value: 106
//
compound: Cn1ncnc1[C@H]1c2n[nH]c(=O)c3cc(F)cc(c23)N[C@@H]1c1ccc(F)cc1 + CN(C)c1ccc(Nc2c3ccc(NC(=O)CCN4CCCC4)cc3nc3cc(NC(=O)CCN4CCCC4)ccc23)cc1
target-desc: K24384-001-R-PDC complex spheroids, viability
value-kind: viability, T/C
observed-value: 101

Consider the record given below.
Prompt: Find the recorded viability, T/C belonging to Cc1[nH]c2ccccc2c1CCNCc1ccc(/C=C/C(=O)NO)cc1 + Cc1cnc(CNC(=O)c2c(=O)c3ccc(N4CCCN(C)CC4)nc3n3c2sc2ccccc23)cn1 and report it.
Response: 83.9
